Entries and their IC50 values follow.
tested on: MCF-7; test: Growth inhibition (SRB or cell counting), MCF-7; type: cell-based; settings: Homo sapiens, MCF7, concentration required to inhibit net cell growth by 50%, read-out: Cancer cell line: IC50
Number in nM, nothing else.

Worked cases, IC50 given:
chem smiles | u | IC50
COc1ccc(/C=C\c2cc(OC)c(OC)c(OC)c2)cc1OP(=O)(O)O | nM | 5
CNc1oc2c(O)c(OC)ccc2c1C(=O)c1cc(OC)c(OC)c(OC)c1 | nM | 3.5
C#Cc1oc2c(O)c(OC)ccc2c1C(=O)c1cc(OC)c(OC)c(OC)c1 | nM | 3.3

Shift focus to the following entry.
// Input: COc1ccc2c(C(=O)c3cc(OC)c(OC)c(OC)c3)coc2c1 . Output its IC50 only.
55
